test system: Saccharomyces cerevisiae; test: Inhibition of Saccharomyces cerevisiae alpha-glucosidase using p-nitro-phenyl-alpha-D-glucopyranoside as substrate at 200 uM preincubated with enzyme followed by substrate addition measured after 10 mins for every 2.5 to 5 mins relative to control
Known inhibition of a selection of molecules

cpd-smiles: CC1=CC(=O)CC(C)(C)[C@@]1(O)/C=C/[C@@H](C)O[C@@H]1O[C@H](CO)[C@@H](O)[C@H](O)[C@H]1O
value-unit: %
inhibition: 13.7
//
cpd-smiles: CC(=O)/C=C/[C@]12O[C@@]1(C)C[C@@H](O)CC2(C)C
value-unit: %
inhibition: 17.6
//
cpd-smiles: O=c1cc(-c2ccc(O)c(O)c2)oc2cc(O)cc(O)c12
value-unit: %
inhibition: 99.6
//
cpd-smiles: C=C1C(=O)O[C@@H]2/C=C(\C)CC/C=C(\C(=O)O[C@@H]3O[C@H](CO)[C@@H](O)[C@H](O)[C@H]3O)CC[C@@H]12
value-unit: %
inhibition: 13.1
//
cpd-smiles: COc1cc(-c2cc(=O)c3c(O)cc(O)cc3o2)cc(OC)c1O[C@H](CO)[C@@H](O)c1ccc(O)cc1
value-unit: %
inhibition: 8.7
//
cpd-smiles: COc1cc(-c2cc(=O)c3c(O)cc(O)cc3o2)ccc1O
value-unit: %
inhibition: 56.9
//
cpd-smiles: O=C1C[C@@H](O[C@@H]2O[C@H](CO)[C@@H](O)[C@H](OC(=O)Cc3ccc(O)cc3)[C@H]2OC(=O)Cc2ccc(O)cc2)CO1
value-unit: %
inhibition: 58.3
//
cpd-smiles: COc1cc(/C=C/CO)cc(OC)c1O[C@@H]1O[C@H](CO)[C@@H](O)[C@H](O)[C@H]1O
value-unit: %
inhibition: 1.8
//
cpd-smiles: COC(=O)C[C@@H](CO)O[C@@H]1O[C@H](CO)[C@@H](O)[C@H](OC(=O)Cc2ccccc2)[C@H]1OC(=O)C(=O)c1ccc(O)cc1
value-unit: %
inhibition: 56.6
//
cpd-smiles: COc1cc(-c2oc3cc(O)cc(O)c3c(=O)c2O)cc(O)c1OC
value-unit: %
inhibition: 57.4
//
cpd-smiles: COC(=O)C[C@@H](CO)O[C@@H]1O[C@H](CO)[C@@H](O)[C@H](OC(=O)Cc2ccccc2)[C@H]1OC(=O)Cc1ccc(O)cc1
value-unit: %
inhibition: 59.7
//
cpd-smiles: CC1=CC(=O)CC(C)(C)[C@]1(O)/C=C/[C@@H](C)O[C@@H]1O[C@H](CO)[C@@H](O)[C@H](O)[C@H]1O
value-unit: %
inhibition: 9.4
